test system: OVCAR-8 ovarian; experiment: NCI-60 one-dose screen, 48 h; conditions: 10 µM unless noted
This is part of a sample that, as a whole, favours compounds with a hit. Of some 83,000 tested, about 20% had one in any assay. Active and inactive are the calls of the source. Rule for the calls: active = growth percent below 10; inactive = the rest.
Outcomes: 1 (yes) = active, 0 (no) = inactive

{"columns": ["Compound", "Tested system", "Label value"],
 "data": [
  ["Cc1nc(N)[nH]c(=O)c1C", "OVCAR-8 ovarian", "0 (no)"],
  ["O=C1C(=O)c2ccc(Br)cc2-c2cc(Br)ccc21", "OVCAR-8 ovarian", "1 (yes)"],
  ["CCN(CC)CCNc1ccc(Cl)cc1Cl", "OVCAR-8 ovarian", "0 (no)"],
  ["Oc1ccccc1/C=N\\Nc1ccccc1", "OVCAR-8 ovarian", "0 (no)"],
  ["O=C(/C=C/c1cc2ccccc2[nH]c1=O)c1ccc(O)cc1", "OVCAR-8 ovarian", "0 (no)"],
  ["COc1ccc(C2CC(c3cccc(Nc4ccnc5cc(Cl)ccc45)c3)=NN2C=O)cc1 (stereo unspecified)", "OVCAR-8 ovarian", "0 (no)"],
  ["COc1ccc(-n2nc3c(c2-c2ccc(OC)c(OC)c2)-c2oncc2CC3)cc1", "OVCAR-8 ovarian", "0 (no)"],
  ["CC12CCC3C(CCC4CC(=O)/C(=C\\O)CC43C)C1CCC(=O)O2 (stereo unspecified)", "OVCAR-8 ovarian", "0 (no)"],
  ["CCOC(=O)c1c(C)c(C(=O)OCC)n(C)c1C", "OVCAR-8 ovarian", "0 (no)"],
  ["O=C1/C(=C/c2ccc([N+](=O)[O-])s2)Oc2ccc(Br)cc21", "OVCAR-8 ovarian", "1 (yes)"],
  ["CCC(C)CC(CC)NCCN1CCN(C(CC)CC(C)CC)C1=S (stereo unspecified)", "OVCAR-8 ovarian", "0 (no)"],
  ["COc1cc2c(-c3nc4cc(Cl)c(F)cc4s3)cc(=O)oc2c(C)c1OC", "OVCAR-8 ovarian", "1 (yes)"],
  ["O=C1/C(=C/c2ccc([N+](=O)[O-])o2)Oc2ccc(Br)cc21", "OVCAR-8 ovarian", "1 (yes)"],
  ["COc1ccc(-c2c(-c3cc(OC)c(OC)c(OC)c3)noc2N)cc1", "OVCAR-8 ovarian", "0 (no)"],
  ["CCCCCCC(C)(O)c1ccccc1 (stereo unspecified)", "OVCAR-8 ovarian", "0 (no)"],
  ["CC(=O)NC1(C(=O)O)CCCC1", "OVCAR-8 ovarian", "0 (no)"],
  ["COc1ccc(/C=C2\\COc3ccc(O)c(O)c3C2=O)cc1OC", "OVCAR-8 ovarian", "1 (yes)"],
  ["Cc1cc(Cl)ccc1Nc1nc(C(F)(F)F)ccc1C(=O)NCC(=O)N/N=C/c1c(Cl)cccc1Cl", "OVCAR-8 ovarian", "0 (no)"],
  ["OCCOc1c(Cl)cc(Cl)cc1Cl", "OVCAR-8 ovarian", "0 (no)"],
  ["O=C1OCCCCCCCCCC#Cc2ccccc21", "OVCAR-8 ovarian", "0 (no)"],
  ["O=C(O)c1ccccc1C(=O)OC1CCCC2CCCC21 (stereo unspecified)", "OVCAR-8 ovarian", "0 (no)"],
  ["CCCc1cc(=O)n2c(C(=O)Nc3ccccc3OC)c(C(=O)Nc3ccc(F)cc3)sc2n1", "OVCAR-8 ovarian", "0 (no)"],
  ["O=C1CC(=O)N(c2ccccc2)O1", "OVCAR-8 ovarian", "0 (no)"],
  ["NC(N)=N/N=C(/c1ccccc1)c1ccc(Cl)cc1", "OVCAR-8 ovarian", "0 (no)"],
  ["Cc1cc2c(cc1C)Nc1sc(NC(=O)CN3CCN(C)CC3)nc1C(=O)N2", "OVCAR-8 ovarian", "0 (no)"],
  ["N#Cc1c2ccccc2c2n1-c1ccccc1OC(c1ccccc1)C2=O (stereo unspecified)", "OVCAR-8 ovarian", "0 (no)"],
  ["OC(Cc1cccnc1)c1ccccc1 (stereo unspecified)", "OVCAR-8 ovarian", "0 (no)"],
  ["CCCCCCCC1(C)NC(=O)NC1=O (stereo unspecified)", "OVCAR-8 ovarian", "0 (no)"],
  ["O=C(Nc1ccncc1)C(=O)c1cn(S(=O)(=O)c2cccc(F)c2)c2ccccc12", "OVCAR-8 ovarian", "0 (no)"],
  ["CCC1=C(c2ccc(OC)cc2)C(C)Oc2cc(OC(C)=O)ccc21 (stereo unspecified)", "OVCAR-8 ovarian", "0 (no)"],
  ["Cc1ccc(C(=O)Nc2ccc(Cl)cc2C(=O)NCc2ccccc2)cc1", "OVCAR-8 ovarian", "0 (no)"],
  ["O=C(/C=C/c1cccnc1)NCCCCC1CCCN(C(=O)c2ccccc2)C1 (stereo unspecified)", "OVCAR-8 ovarian", "0 (no)"],
  ["Cn1cnc([N+](=O)[O-])c1S(=O)(=O)Oc1ccc(Cl)cc1", "OVCAR-8 ovarian", "0 (no)"],
  ["CCCCCCCCCCCCCCCCCc1nccn1CCO", "OVCAR-8 ovarian", "0 (no)"],
  ["COC(=O)[C@]12CC[C@@H](C)[C@H](C)[C@@H]1C1=CC[C@@H]3[C@@]4(C)C=C(O)C(=O)[C@@]5(C)COC(=C54)C[C@@]3(C)[C@]1(C)CC2", "OVCAR-8 ovarian", "1 (yes)"],
  ["C=C(C[C@](O)(C(=O)/C=C/c1ccc(Cl)cc1)C(=O)OC)c1ccccc1", "OVCAR-8 ovarian", "0 (no)"],
  ["COC(=O)c1ccc2c(c1)nc(-c1ccc(O)c(OC)c1)n2-c1cc(C(C)(C)C)[nH]n1", "OVCAR-8 ovarian", "0 (no)"],
  ["Cc1c(C(N)=O)sc2nc(SCC(=O)Nc3ccc(Cl)cc3)n(-c3ccccc3)c(=O)c12", "OVCAR-8 ovarian", "0 (no)"],
  ["O=C(/C=C/c1ccccc1)CC(c1ccccc1)N1CCOCC1 (stereo unspecified)", "OVCAR-8 ovarian", "0 (no)"],
  ["COc1cc(/C=C2\\COc3ccc(O)cc3C2=O)cc(OC)c1", "OVCAR-8 ovarian", "0 (no)"],
  ["CSc1ncc2ncn(C3OC(CO)C(O)C3O)c2n1 (stereo unspecified)", "OVCAR-8 ovarian", "0 (no)"],
  ["COc1cc(NC(=O)c2cc3ccccc3cc2O)c(OC)cc1Cl", "OVCAR-8 ovarian", "1 (yes)"],
  ["S=C(c1ccccc1)N1CCN(c2cccc(Cl)c2)CC1", "OVCAR-8 ovarian", "0 (no)"],
  ["O=C1OCC/C1=C\\OCCCO/C=C1\\CCOC1=O", "OVCAR-8 ovarian", "0 (no)"],
  ["COC(=O)C[C@@H]1CC=CC(=O)/C1=C(O)/C=C/c1ccccc1", "OVCAR-8 ovarian", "0 (no)"],
  ["ClC1=C(Cl)C(Cl)=C(Cl)C1=C/C=C/c1ccccc1", "OVCAR-8 ovarian", "1 (yes)"]
]}

Where do these numbers come from? They come from PubChem BioAssay (NCI).
